Attribution: PubChem BioAssay AID1159580

- protocol text: chemical genetic growth profiling, strain panel (AID 1159580);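 further: tested at 20 µM; growth read once vehicle control cultures reached saturation at 30 °C; 1 = growth at the plate median or of vehicle wells; lower values mean less growth of the strain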
- condition parameters: S. cerevisiae deletion strains, growth OD, locus YOR106W, strain vam3, hits give low values
Out of some 5,500 compounds screened, about 2,000 (36%) were called active. Not shown: some 18% with an inconclusive outcome. The list shows a part of the results.
measured property: normalized growth
// print number alone

Request: Sample "COC(=O)C[C@H]1C(C)(C)C(=O)[C@@H]2CC3=C(CC[C@]4(C)C3=CC(=O)O[C@H]4c3ccoc3)[C@@]1(C)C2=O" — what was its normalized growth?
Result: 0.974

Request: Subsequent entry: "CCCCN(CCCC)CCCOC(=O)c1ccc(N)cc1"
Result: 0.995

Request: // repeat for CC(=O)OCC(OC(C)=O)C(OC(C)=O)C(OC(C)=O)C(OC(C)=O)C(COC(C)=O)OC(C)=O (centres undefined) and report
Result: 0.989

Request: Here is the next compound: "NC(N)=NS(=O)(=O)c1ccc(N)cc1"
Result: 0.976

###

- protocol text: chemical genetic growth profiling, strain panel (AID 1159580);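 further: tested at 20 µM; growth read once vehicle control cultures reached saturation at 30 °C; 1 = growth at the plate median or of vehicle wells; lower values mean less growth of the strain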
- condition parameters: S. cerevisiae deletion strains, growth OD, locus YJL166W, strain qcr8
Screen size: about 5,500 compounds; about 2,000 (36%) were called active. Not shown: some 18% with an inconclusive outcome. Rule as the data show it: active = normalized growth mostly below about 0.91 (no sharp cut-off); inconclusive = no clear call, values can overlap the other calls; inactive = mostly above about 0.92. The list shows a part of the results.
Your reply should match one of these outcome classes. active, inactive

Request: Answer briefly: the call reported for NS(=O)(=O)c1cc2c(cc1Cl)NC(C(Cl)Cl)NS2(=O)=O (stereo not drawn) in this assay.
Result: inactive

Request: "COc1ccc(-c2coc3cc(OC)cc(OC)c3c2=O)cc1" , same question.
Result: inactive

Request: Also C=C1CCC(OC(C)=O)/C(C)=C/C[C@@H]2[C@@H]1CC2(C)C (stereo partly drawn) , if possible.
Result: inactive

Request: Now try C=C1CCC(C2CC(=O)OC2=O)C(=O)CCC2C1CC2(C)C (stereo not drawn) .
Result: inactive

Request: Try C#CCCCCCCCCCCCC(O)CC(O)CO (stereo not drawn) next.
Result: inactive

Request: Param item: "Cc1cc(NC(=O)C2=C(O)c3ccccc3S(=O)(=O)N2C)no1"
Result: inactive

Request: What do you get for C[C@@H]1C(=O)OC2[C@H](O)C34[C@@H]5OC(=O)[C@@]3(O[C@@H]3OC(=O)[C@H](O)[C@@]34[C@H](C(C)(C)C)[C@H]5O)[C@]21O (stereo partly drawn) ?
Result: inactive

Request: Next up: "O=c1cc(-c2ccccc2O)oc2cc(O)ccc12"
Result: inactive

Request: How about "N[C@@H](CC(=O)N1CCn2c(nnc2C(F)(F)F)C1)Cc1cc(F)c(F)cc1F" ?
Result: inactive

Request: Again, but for CC(C)(Oc1ccc(C2CC2(Cl)Cl)cc1)C(=O)O (stereo not drawn)
Result: inactive

Request: "COc1cc(OC)c2c(=O)c(-c3ccccc3)coc2c1"
Result: inactive

Request: Please do the same for CO[C@@]1(NC(=O)CSCC#N)C(=O)N2C(C(=O)O)=C(CSc3nnnn3C)CSC21 (stereo partly drawn) as well.
Result: inactive

Request: One more compound: "Cc1ccc(Cl)c(Nc2ccccc2C(=O)O)c1Cl"
Result: active

Request: Would you mind doing "CC[N+](CC)(CC)CCOc1cccc(OCC[N+](CC)(CC)CC)c1OCC[N+](CC)(CC)CC" as well?
Result: inactive

Request: Here is the next compound: O=S1OCC2C(CO1)C1(Cl)C(Cl)=C(Cl)C2(Cl)C1(Cl)Cl (stereo not drawn)
Result: active

Request: Note, next up: "CC[C@H](C)C(=O)O[C@H]1C[C@@H](C)C=C2C=C[C@H](C)[C@H](CC[C@@H]3C[C@@H](O)CC(=O)O3)[C@H]21"
Result: inactive

Request: // query: C#CCCCCCCCCCCCC(=O)CC(O)COC(C)=O (stereo not drawn)
Result: inactive

Request: Next compound: CC(C)NCC(O)COc1cccc2ccccc12 (stereo not drawn)
Result: inactive

Request: Then what about the compound CCC(C)C(=O)O[C@H]1C[C@H](O)C=C2C=C[C@H](C)[C@H](CC[C@@H](O)C[C@@H](O)CC(=O)O)C21 (stereo partly drawn) ?
Result: inactive

Request: Try C=CCCCCCCCCCCCC(O)CC(O)COC(C)=O (stereo not drawn) (tested in a mixture with another compound) next.
Result: active

Request: Another compound: "CC(C)NC[C@H](O)COc1cccc2ccccc12"
Result: inactive

Request: Similarly, "Cc1c(Cl)cccc1Nc1ccccc1C(=O)O" ?
Result: active

Request: Repeat with CC(C)COCC(CN(Cc1ccccc1)c1ccccc1)N1CCCC1 (stereo not drawn)
Result: inactive
